- ASSAY METHOD TEXT: Hepatic microsomal stability
- Assay type: in vitro ADME, mice
- SETUP CONDITIONS: mouse, pooled mouse liver microsomes, pH 7.4; mice microsomes, corrected for binding to microsomes; read-out: CLint, inc

# ITEM SMILES, microsomal CLint at 1 µM (µL/min/mg)
records = [
    ("CNCCOc1nn(-c2c(Cl)cc(Cl)cc2Cl)c(C(Cl)Cl)c1[N+](=O)[O-].Cl", 2820),
]

* * *

- ASSAY METHOD TEXT: Acute oral toxicity in mice
- SETUP CONDITIONS: female, C57/BL6, mouse, in vivo, po
MEASURED QUANTITY: LD50 at 14 days

# ITEM SMILES, MEASURED QUANTITY, READOUT VALUE
measured = [
    ("CNCCOc1nn(-c2c(Cl)cc(Cl)cc2Cl)c(C(Cl)Cl)c1[N+](=O)[O-].Cl", "LD50 at 14 days", "> 250 mg/kg"),
]

* * *

- ASSAY METHOD TEXT: in vivo
- SETUP CONDITIONS: female, C57/BL6, mouse, iv, 12.5 mg/kg
MEASURED QUANTITY: AUC

# ITEM SMILES, READOUT VALUE
measured = [
    ("CNCCOc1nn(-c2c(Cl)cc(Cl)cc2Cl)c(C(Cl)Cl)c1[N+](=O)[O-].Cl", "530 ng·h/mL"),
]

* * *

- ASSAY METHOD TEXT: in vivo
- SETUP CONDITIONS: female, C57/BL6, mouse, iv, 12.5 mg/kg
MEASURED QUANTITY: C0 (ng/mL)

# ITEM SMILES, READOUT VALUE
rows = [
    ("CNCCOc1nn(-c2c(Cl)cc(Cl)cc2Cl)c(C(Cl)Cl)c1[N+](=O)[O-].Cl", 660),
]

* * *

- ASSAY METHOD TEXT: in vivo
- SETUP CONDITIONS: female, C57/BL6, mouse, po, 25 mg/kg, F (bioavailability)

# ITEM SMILES, bioavailability
data = [
    ("CNCCOc1nn(-c2c(Cl)cc(Cl)cc2Cl)c(C(Cl)Cl)c1[N+](=O)[O-].Cl", "32.7%"),
]

* * *

- ASSAY METHOD TEXT: in vivo
- SETUP CONDITIONS: female, C57/BL6, mouse, iv, 12.5 mg/kg
MEASURED QUANTITY: clearance

# COMPOUND, MEASURED QUANTITY, READOUT VALUE
data = [
    ("CNCCOc1nn(-c2c(Cl)cc(Cl)cc2Cl)c(C(Cl)Cl)c1[N+](=O)[O-].Cl [LX079]", "clearance", "394 mL/min/kg"),
]

* * *

- ASSAY METHOD TEXT: in vivo
- SETUP CONDITIONS: female, C57/BL6, mouse, iv, 12.5 mg/kg
MEASURED QUANTITY: half-life (min)

# ITEM SMILES, READOUT VALUE
data = [
    ("CNCCOc1nn(-c2c(Cl)cc(Cl)cc2Cl)c(C(Cl)Cl)c1[N+](=O)[O-].Cl", 25.8),
]
